target: full length recombinant H1 residues 18-530 derived from A/California/06/09 (Influenza A virus A/California/06/09 (H1N1)); assay: SPR, single cycle kinetics, HA immobilised
Parameter log10 of Kd: see the listing below.
PROPERTY LABEL: log10 of Kd (log10 of the value in nM)

BINDER	PROPERTY LABEL	EXPERIMENTAL RESULT
R2a-G8 (VHH) VHH: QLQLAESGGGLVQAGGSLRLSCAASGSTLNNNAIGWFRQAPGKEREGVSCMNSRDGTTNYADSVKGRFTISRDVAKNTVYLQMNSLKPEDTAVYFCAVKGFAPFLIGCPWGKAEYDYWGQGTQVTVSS	log10 of Kd	0.49
R1a-G5 (VHH) VHH: QLQLVESGGGLVQPGGSLRLSCAASGSISRIVTMGWYRQASGKERELVAVIGNYGNTNYADSVKGRFTVSRDNAKDTAYLQMNGLNVEDTAIYYCKTSTTTPPYEYWGQGTQVTVSS	log10 of Kd	1.38
R1a-F5 (VHH) VHH: QLQLVESGGGLVQVGGSLRLSCAASGFPFDGYAIAWFRQAPGKEREGVSCRASDGNTYYAESLKGRLTMSTDNAKNTVYLQMNSLKPEDTAVYYCAAASWVASLWSPSEYDYWGQGTQVTVSS	log10 of Kd	0.96
R1a-F4 (VHH) VHH: QVQLVESGGGLVQPGGSLRLSCAASGSISRIVTMGWYRQGPGKERELVAVIGNYGNTNYADSVKGRFTVSRDNAKDTAYLQMNNLNVEDTAMYYCKCSTTTPPHEFWGQGTQVTVSS	log10 of Kd	0.86
R1a-E6 (VHH) VHH: QVQLVESGGGLVQPGGSLRLSCAASGFTLGAYAIAWFRQAPGKEREGVSCISPSDSFTEYGDSVKGRFTVSRDNAKNTVYLQMNSLQPEDTAVYYCAADPVCTAGWYRPSRFDLWGQGTQVTVSS	log10 of Kd	1.36
R1a-A5 (VHH) VHH: QVQLVESGGGLVQPGGSLRLSCSASGSAVLFSTYPMSWYRQAPGKQRELVAAVTTDGSTSYADYAKGRFTISRDNAKNTVYLQMNSLKPEDTAVYYCNARDGFFNRYDYWGQGTQVTVSS	log10 of Kd	0.52
R1a-C5 (VHH) VHH: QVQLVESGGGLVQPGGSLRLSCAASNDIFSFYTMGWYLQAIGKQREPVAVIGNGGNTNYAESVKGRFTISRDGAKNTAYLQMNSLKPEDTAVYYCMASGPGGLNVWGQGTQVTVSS	log10 of Kd	0.28
R2a-G9 (VHH) VHH: QVQLVESGGGLVQPGGSLRLSCAASDNIFSFYTMGWYRQSPGKERELVAVIGNGGNTNYADSVKGRFTISRDNGKNKAHLQMNSLKPEDTAVYYCKASGPGGVEVWGQGTQVTVSS	log10 of Kd	1.79
R1a-E5 (VHH) VHH: QLQLVESGGGLVQPGGSLRLSCTASGFSLDNYAIGWFRRAPGEEREGVSFITSTSAVTKYADSVKGRFTISRDNAKNTVYLQMTSLKPEDTAVYYCAGTRWVPTMKADEYNYWGQGTQVTVSS	log10 of Kd	-0.22
R1a-B6 (VHH) VHH: QVQLVESGGGLVQPGGSLRLSCAASGSFFSRYRMGWYRQAPGEQRELVASIAYDGSTSYADPVKGRFTISRDNANTVHLQMYSLKPDDTAVYYCNLDPPGILYWGQGTQVTVSS	log10 of Kd	-0.15
R1a-G6 (VHH) VHH: QVQLVESGGGLVQSGGSLRLSCAASGSMSRIITMGWYRQAPGMERELVAVIGNNDNTVYGDSVQGRFTVSRDNAKNTAYLQMNSLNAEDTAMYYCKISTLTPPHEYWGQGTQVTVSS	log10 of Kd	0.64
R2b-D9 (VHH) VHH: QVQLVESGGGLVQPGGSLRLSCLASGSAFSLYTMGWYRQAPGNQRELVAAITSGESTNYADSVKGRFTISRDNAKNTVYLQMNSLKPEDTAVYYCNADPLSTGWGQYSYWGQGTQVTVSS	log10 of Kd	-0.40
R2a-B9 (VHH) VHH: QVQLVESGGGLVQPGGSLRLSCAASGSAFSINAMGWYRQAPGEEREFVAAITAGGNTYYADSAKARFTISRDNAKNMLYLQMNSLKPEDTAMYYCAATKAFGIATITADYELWGQGTQVTVSS	log10 of Kd	-0.70
